biological target: Gal(a1-3)Gal(b1-4)[Fuc(a1-3)]GlcNAc; assay: glycan array binding signal (z-score within array); higher = stronger binding; details: glycan notation: IUPAC condensed, linker removed
The full list was thinned out, with the strongest signals kept by preference.
measurement type: glycan array binding signal (z-score)

{"binder": "HFR-3 (Triticum aestivum) (protein) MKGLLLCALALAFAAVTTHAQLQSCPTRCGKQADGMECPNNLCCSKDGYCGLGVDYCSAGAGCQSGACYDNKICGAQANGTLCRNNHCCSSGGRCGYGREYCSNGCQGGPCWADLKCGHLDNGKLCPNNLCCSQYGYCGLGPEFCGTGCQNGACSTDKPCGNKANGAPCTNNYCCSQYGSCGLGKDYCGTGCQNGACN", "endpoint value": -0.409}
{"binder": "Banana lectin (Musa acuminata) (protein) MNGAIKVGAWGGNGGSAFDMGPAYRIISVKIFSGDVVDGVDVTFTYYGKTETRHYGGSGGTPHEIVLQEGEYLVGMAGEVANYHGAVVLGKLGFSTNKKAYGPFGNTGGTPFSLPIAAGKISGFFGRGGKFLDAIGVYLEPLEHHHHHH", "endpoint value": -0.222}
{"binder": "Gal 3C (Homo sapiens), P17931 (protein) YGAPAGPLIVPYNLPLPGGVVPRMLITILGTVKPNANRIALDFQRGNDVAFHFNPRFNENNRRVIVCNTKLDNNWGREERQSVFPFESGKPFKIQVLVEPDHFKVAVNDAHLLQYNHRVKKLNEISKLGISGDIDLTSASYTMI", "endpoint value": -0.259}
{"binder": "TIM-1 (Mus musculus), AAL35774 (protein) MNQIQVFISGLILLLPGAVDSYVEVKGVVGHPVTLPCTYSTYRGITTTCWGRGQCPSSACQNTLIWTNGHRVTYQKSSRYNLKGHISEGDVSLTIENSVESDSGLYCCRVEIPGWFNDQKVTFSLQVKPEIPTRPPTRPTTTRPTATGRPTTISTRSTHVPTSIRVSTSTPPTSTHTWTHKPEPTTFCPHETTAEVTGIPSHTPTDWNGTVTSSGDTWSNHTEAIPPGKPQKNPTKGFYVGICIAALLLLLLVSTVAITRYILMKRKSASLSVVAFRVSKIEALQNAAVVHSRAEDNIYIVEDRP", "endpoint value": 2.6}
{"binder": "Sp8391B-bot-388-20-388 (Bacteroides ovatus) (protein) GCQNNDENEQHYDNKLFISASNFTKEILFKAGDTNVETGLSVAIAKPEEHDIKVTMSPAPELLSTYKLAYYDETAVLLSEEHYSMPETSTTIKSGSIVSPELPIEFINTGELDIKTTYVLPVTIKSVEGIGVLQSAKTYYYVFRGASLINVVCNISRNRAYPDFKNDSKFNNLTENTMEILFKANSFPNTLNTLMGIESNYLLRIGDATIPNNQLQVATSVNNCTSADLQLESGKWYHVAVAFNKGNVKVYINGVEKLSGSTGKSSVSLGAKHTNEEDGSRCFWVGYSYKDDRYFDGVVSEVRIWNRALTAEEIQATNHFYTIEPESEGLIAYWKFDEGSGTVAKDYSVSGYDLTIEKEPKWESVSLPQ", "endpoint value": -0.616}
{"binder": "DCIR1 (Mus musculus), Q9QZ15 (protein) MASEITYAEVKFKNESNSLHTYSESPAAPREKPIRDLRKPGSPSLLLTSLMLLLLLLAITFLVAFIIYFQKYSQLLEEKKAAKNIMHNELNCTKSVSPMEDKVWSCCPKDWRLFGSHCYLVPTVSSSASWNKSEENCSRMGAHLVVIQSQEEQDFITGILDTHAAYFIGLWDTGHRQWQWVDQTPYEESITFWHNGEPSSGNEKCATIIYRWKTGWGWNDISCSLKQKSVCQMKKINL", "endpoint value": -0.171}
{"binder": "CML1 (Coprinopsis cinerea) (protein) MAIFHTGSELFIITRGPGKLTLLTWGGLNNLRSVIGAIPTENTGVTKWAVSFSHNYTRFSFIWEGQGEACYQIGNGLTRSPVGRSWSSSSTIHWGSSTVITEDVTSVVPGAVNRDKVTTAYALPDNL", "endpoint value": -0.346}
{"binder": "AT3G09350(27) (Arabidopsis thaliana), Q84J81 (protein) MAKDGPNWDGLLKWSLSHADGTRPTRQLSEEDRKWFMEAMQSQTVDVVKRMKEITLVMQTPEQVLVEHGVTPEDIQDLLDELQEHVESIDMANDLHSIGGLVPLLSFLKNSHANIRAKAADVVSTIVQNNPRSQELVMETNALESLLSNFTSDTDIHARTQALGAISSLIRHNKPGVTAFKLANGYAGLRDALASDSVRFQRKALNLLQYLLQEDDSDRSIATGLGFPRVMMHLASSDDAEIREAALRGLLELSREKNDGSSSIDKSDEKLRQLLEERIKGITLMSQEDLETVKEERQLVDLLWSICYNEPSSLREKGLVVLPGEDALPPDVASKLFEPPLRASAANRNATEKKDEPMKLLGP", "endpoint value": -0.122}
{"binder": "Sebin2 (Coprinopsis cinerea), A8PE78 (protein) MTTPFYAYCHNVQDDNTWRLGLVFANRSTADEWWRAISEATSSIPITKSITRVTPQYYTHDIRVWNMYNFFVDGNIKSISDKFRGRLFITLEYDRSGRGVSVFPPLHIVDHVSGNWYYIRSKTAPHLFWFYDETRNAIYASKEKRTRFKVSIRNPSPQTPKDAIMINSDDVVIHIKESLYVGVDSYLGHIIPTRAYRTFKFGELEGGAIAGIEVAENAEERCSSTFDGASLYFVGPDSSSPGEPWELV", "endpoint value": -0.524}
{"binder": "Jacalin (Artocarpus integrifolia) (protein) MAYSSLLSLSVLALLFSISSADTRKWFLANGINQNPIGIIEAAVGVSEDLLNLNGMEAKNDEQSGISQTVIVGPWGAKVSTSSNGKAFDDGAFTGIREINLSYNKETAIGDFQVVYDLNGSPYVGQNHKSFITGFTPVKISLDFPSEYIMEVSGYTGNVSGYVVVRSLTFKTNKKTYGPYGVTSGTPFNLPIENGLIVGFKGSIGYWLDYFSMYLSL", "endpoint value": -0.268}
